// provenance: paper PMC3535304

Experimental Target: bovine brain tubulin (Bos taurus, UniProt P81947+Q6B856)
Sequence (Q6B856 whole entry): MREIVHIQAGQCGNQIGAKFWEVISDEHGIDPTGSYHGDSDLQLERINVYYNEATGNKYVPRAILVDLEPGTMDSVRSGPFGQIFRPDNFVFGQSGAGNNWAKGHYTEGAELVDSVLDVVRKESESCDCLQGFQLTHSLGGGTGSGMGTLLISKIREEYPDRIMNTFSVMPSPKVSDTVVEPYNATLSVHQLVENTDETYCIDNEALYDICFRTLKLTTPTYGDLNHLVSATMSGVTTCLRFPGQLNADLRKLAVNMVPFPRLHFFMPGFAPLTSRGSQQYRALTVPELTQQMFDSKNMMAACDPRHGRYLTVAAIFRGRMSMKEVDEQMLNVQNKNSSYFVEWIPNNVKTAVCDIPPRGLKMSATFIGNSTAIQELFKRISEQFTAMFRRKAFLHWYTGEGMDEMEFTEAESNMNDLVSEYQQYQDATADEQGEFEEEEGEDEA
Sequence (P81947 whole entry): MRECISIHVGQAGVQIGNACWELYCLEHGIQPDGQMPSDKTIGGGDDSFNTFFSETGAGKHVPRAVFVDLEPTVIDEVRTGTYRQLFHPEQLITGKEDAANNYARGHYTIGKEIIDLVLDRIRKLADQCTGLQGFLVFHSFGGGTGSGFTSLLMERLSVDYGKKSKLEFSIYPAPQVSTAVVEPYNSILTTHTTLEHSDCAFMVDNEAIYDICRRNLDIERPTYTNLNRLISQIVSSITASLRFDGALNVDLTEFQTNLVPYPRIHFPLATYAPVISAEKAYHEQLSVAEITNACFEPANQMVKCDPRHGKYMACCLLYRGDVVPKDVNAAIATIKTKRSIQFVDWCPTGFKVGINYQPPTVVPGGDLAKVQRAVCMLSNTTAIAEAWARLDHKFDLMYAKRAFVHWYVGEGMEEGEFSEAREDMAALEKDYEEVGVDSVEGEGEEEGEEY
Assay Explanation: Inhibition of tubulin polymerization
Test Settings: read-out: Tubulin assembly IC50; tubulin at 10 μM, 20 min incubation
pIC50: −log10 of the molar value.
Measured Property: pIC50

CCOc1ccc(-c2sc(N)nc2-c2cc(OC)c(OC)c(OC)c2)cc1 : 6.21

[A] COc1cc(-c2nc(N)sc2-c2ccc3ccccc3c2)cc(OC)c1OC
[B] COc1cc(-c2nc(N)sc2-c2ccc(C)cc2)cc(OC)c1OC
Input: Between A and B , which one has the lower reported pIC50 value? Record your answer as the label of the chosen record.
Output: A
(A: 6.13, B: 6.36)

----------
Test system: Jurkat cells
Assay Explanation: In vitro antiproliferative assay
Assay type: cell-based
Test Settings: Homo sapiens, 72 h, read-out: IC50 (cell growth inhibition)
Measured Property: pIC50
In plain terms, pIC50 is the concentration in mol/L turned into minus its base-10 logarithm.

Input: Form field: reported pIC50 of COc1ccc(/C=C\c2cc(OC)c(OC)c(OC)c2)cc1O [CA-4, Combretastatin A-4]
Output: 8.30
